Every entry's value here was drawn from ChEMBL document CHEMBL4840360.

# PROTOCOL_SUMMARY: Tmax in rat at 3 mg/kg, po
# Format: ADME, organism-based
# RUN_CONDITIONS: in vivo
OBSERVATION_TYPE: Tmax (h)

>>> print(df.to_string())
                                test_smiles  reported
0  Cc1c(-c2ccc3c(c2)OCCO3)cccc1C(F)(F)Oc1cc(OCc2ccnc(C#N)c2)c(CN2CCCC[C@H]2C(=O)O)cc1Cl      2.83
1  Cc1c(-c2ccc3c(c2)OCCO3)cccc1C(F)(F)Oc1cc(OCc2cncc(C#N)c2)c(CNC(CO)(CO)CO)cc1Cl      0.33
